# Target Entity: NOX2 (Homo sapiens, UniProt P04839)
# Construct: isolated plasma membranes from human neutrophils as a source for Nox2-p22phox; cytosolic factors recombinant from E. coli
# Sequence (P04839 2-570 limits assumed): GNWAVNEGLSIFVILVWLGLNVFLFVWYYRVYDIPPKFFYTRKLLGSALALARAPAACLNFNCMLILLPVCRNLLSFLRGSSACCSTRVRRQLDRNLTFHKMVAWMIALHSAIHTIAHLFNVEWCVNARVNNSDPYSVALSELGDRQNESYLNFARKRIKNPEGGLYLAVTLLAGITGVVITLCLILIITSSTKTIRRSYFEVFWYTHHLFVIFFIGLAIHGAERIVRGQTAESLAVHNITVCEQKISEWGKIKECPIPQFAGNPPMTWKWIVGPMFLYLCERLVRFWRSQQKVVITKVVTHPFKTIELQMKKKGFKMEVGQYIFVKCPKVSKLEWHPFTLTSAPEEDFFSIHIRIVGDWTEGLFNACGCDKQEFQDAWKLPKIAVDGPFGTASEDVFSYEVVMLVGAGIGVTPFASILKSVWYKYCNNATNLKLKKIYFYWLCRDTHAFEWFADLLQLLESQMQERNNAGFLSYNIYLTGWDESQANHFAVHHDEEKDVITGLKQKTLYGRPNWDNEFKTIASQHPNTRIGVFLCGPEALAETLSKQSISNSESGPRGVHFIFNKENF
# Sequence (P13498 2-195 partner limits assumed): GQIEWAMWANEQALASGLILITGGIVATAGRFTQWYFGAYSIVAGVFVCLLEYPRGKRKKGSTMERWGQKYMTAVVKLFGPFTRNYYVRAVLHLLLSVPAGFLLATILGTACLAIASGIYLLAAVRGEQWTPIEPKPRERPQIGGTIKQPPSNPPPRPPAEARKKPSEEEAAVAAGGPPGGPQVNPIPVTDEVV
# Assay: Nox2 cell-free assay (LO12 luminescence)
# Stated Conditions: Nox2 cell-free system; read-out: NOX2 IC50 (concentration giving half-maximal inhibition)
pIC50: −log10 of the molar value.
Observed Property: pIC50

A = Nn1c(SCC(=O)Nc2nc(-c3ccc(Br)cc3)cs2)nc2ccccc2c1=O
B = CN(C)CCCn1c(=S)[nH]c2ccc(F)cc2c1=O [TG6-248]
// query Higher pIC50: A or B ? Refer to your chosen item by its label in the answer.
// result B
(B: 6.22, A: 4.90)

I = CN(C)CCCn1c(=S)[nH]c2ccccc2c1=O
II = O=c1c2cc(Cl)ccc2[nH]c(=S)n1CCN1CCNCC1
III = CN(C)CCCn1c(=S)[nH]c2cc(F)c(F)cc2c1=O [TG6-250]
IV = CCOc1cc2c(=O)n(N)c(=S)[nH]c2cc1OC
// query Ascending by pIC50, please: list the compounds accordingly. Order the labels as requested and give them as your answer.
// result I, II, IV, III

P = Nn1c(=S)[nH]c2cc(C(=O)O)ccc2c1=O
Q = CCOc1cc2[nH]c(=S)n(N)c(=O)c2cc1OC
// query Param metric = pIC50; output whichever of P , Q has the minimum value. Refer to your chosen item by its label in the answer.
// result P
